Cytochrome P450 2C9 (Homo sapiens) measurements of AC50, listed per entry.
Sequence (P11712 whole entry): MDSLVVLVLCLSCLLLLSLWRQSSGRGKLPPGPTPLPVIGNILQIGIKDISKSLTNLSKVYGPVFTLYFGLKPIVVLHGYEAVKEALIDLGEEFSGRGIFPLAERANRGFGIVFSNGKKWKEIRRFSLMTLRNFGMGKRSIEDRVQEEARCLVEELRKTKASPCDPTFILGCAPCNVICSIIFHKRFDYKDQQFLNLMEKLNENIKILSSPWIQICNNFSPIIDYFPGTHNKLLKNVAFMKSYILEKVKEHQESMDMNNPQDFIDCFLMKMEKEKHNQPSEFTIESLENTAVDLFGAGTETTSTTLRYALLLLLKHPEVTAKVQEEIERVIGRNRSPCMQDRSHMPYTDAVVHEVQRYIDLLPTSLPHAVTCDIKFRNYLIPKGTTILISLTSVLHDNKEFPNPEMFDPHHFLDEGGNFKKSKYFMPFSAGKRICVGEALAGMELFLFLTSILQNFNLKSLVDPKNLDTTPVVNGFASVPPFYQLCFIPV

Consider the following illustrative entries.
>  <molecule>
CCC(=S)/C=C1\Sc2ccccc2N1CCCS(=O)(=O)O

>  <AC50>
22.4 µM (inconclusive)

$$$$
>  <molecule>
COc1ccc(-n2c(S)nnc2CNC(=O)c2ccc(S(=O)(=O)N3CCCC3)cc2)cc1

>  <AC50>
20 µM (inconclusive)

$$$$

Given the entry COc1ccccc1NCc1nnc(SCC(=O)N/N=C/c2ccco2)n1-c1ccc(Cl)cc1Cl , report its measured AC50.
35.5 µM (inconclusive)

Given the entry COc1ccc(NC(=O)N2CC[C@@]3(CCCN(C(=O)Oc4ccccc4)C3)C2)cc1 , report its measured AC50.
25.1 µM (inconclusive)

Given the entry O=C(/C=C\NCC(=O)c1ccccc1)c1ccc(F)cc1 , report its measured AC50.
22.4 µM (inconclusive)

Given the entry C[C@H]1C[C@@H]2[C@H]3CCC4=CC(=O)C=C[C@@]4(C)[C@@]3(Cl)[C@@H](O)C[C@]2(C)[C@]1(OC(=O)c1ccco1)C(=O)CCl , report its measured AC50.
5.01 µM (inconclusive)

Given the entry COc1ccc(NC(=O)N2CCCC2C(=O)Nc2ccccc2)cc1 (stereo not given) , report its measured AC50.
28.2 µM (inconclusive)

Given the entry CCNc1ncc2ncc(=O)n(CCc3ccccc3)c2n1 , report its measured AC50.
15.8 µM (inconclusive)

Given the entry O=C(Cn1nnc(-c2ccccc2)n1)OCc1ccccc1 , report its measured AC50.
8.91 µM (inconclusive)

Given the entry O=c1c(CCc2ccccc2)nc2cnc(N3CCOCC3)nc2n1Cc1cccs1 , report its measured AC50.
3.16 µM (inconclusive)
